A collection of binders and their measured Kd
Molecular target: T1, EsCas13d, nuclease-dead (Eubacterium siraeum, UniProt B0MS50, R295A;H300A;R849A;H854A)
T1 sequence: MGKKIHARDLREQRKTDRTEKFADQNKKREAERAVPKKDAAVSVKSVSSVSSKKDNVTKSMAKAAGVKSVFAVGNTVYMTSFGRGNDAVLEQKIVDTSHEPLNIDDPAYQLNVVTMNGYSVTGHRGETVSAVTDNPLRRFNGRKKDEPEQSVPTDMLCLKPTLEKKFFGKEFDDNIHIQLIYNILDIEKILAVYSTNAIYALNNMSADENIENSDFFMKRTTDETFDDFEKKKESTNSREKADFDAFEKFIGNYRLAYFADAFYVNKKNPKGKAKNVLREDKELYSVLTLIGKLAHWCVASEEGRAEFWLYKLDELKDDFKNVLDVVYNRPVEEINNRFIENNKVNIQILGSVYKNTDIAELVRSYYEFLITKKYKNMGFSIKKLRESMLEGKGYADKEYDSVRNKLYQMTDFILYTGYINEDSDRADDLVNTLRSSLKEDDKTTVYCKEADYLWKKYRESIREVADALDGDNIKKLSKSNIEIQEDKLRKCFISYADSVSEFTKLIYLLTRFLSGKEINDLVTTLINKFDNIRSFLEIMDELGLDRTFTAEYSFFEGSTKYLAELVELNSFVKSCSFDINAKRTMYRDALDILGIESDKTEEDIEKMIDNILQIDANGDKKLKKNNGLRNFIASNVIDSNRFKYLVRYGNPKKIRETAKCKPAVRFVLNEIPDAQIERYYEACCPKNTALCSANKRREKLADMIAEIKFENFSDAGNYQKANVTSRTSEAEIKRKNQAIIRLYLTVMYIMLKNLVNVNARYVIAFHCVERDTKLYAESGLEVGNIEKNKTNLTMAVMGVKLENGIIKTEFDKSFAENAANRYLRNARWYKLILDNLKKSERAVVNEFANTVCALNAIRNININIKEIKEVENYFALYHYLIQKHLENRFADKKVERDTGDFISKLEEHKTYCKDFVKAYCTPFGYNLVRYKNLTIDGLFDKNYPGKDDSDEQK
Experiment: crRNA (strand 1, pre-loaded); Mg2+; 40 mM Tris-HCl pH 7.5, 150 mM NaCl, 6 mM MgCl2, 1 mM DTT, 0.1% Tween-20, 0.2 mg/ml BSA; 25 C; 10 min per concentration, then washed
Conditions: tags: His6-TwinStrep-SUMO cleaved; N-terminal SNAP kept (SNAP-Surface 488); label: 3' end held by stalled T7 RNA polymerase
Give a bare numeral; the unit nM is implied.

Observe how each entry below is paired with its result.
- binder: "target 1 insA 3' of 6,insG 3' of 2 (mixed) RNA 1: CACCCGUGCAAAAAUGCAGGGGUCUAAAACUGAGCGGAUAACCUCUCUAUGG RNA 2: GGGAAUGGAUCCACAUCUACGAAUUCGUACCAUAGAGAGGUUAUCCAGCUCGACCGAGAUCGGAAGAGCACACGU"
  Kd (nM): 27
- binder: "target 1 insC 3' of 12,insU 3' of 12 (mixed) RNA 1: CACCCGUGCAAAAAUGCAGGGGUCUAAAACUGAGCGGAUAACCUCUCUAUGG RNA 2: GGGAAUGGAUCCACAUCUACGAAUUCGUACCAUAGAGAGGCUUUAUCCGCUCACCGAGAUCGGAAGAGCACACGU"
  Kd (nM): 10.2
- binder: "target 2 MT 5'PFS UGC 3'PFS CUC (mixed) RNA 1: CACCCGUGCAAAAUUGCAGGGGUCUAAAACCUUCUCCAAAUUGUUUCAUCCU RNA 2: GGGAAUGGAUCCACAUCUACGAAUUCUGCAGGAUGAAACAAUUUGGAGAAGCUCAGAUCGGAAGAGCACACGU"
  Kd (nM): 26

Alright, here's another binder for you.
QUERY: What value of Kd has been recorded for this entry: target 3 insC 3' of 11,insG 3' of 5 (mixed) RNA 1: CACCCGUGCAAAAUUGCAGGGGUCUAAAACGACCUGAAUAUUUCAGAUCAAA RNA 2: GGGAAUGGAUCCACAUCUACGAAUUCGUUUUUGAUCUGAAACUAUUCAGGGUCUGCAGAUCGGAAGAGCACACGU
RESULT: 86.5
